Value source: the supplement of paper PMC7877785

Consider the following sequences; for each one, report its self-splicing fitness (ln).
method_notes: self-splicing fitness, log relative to wild type (ln ratio); higher = more splicing; Tetrahymena group I intron in knt gene, E. coli kanamycin selection, DiMSum; sequences stand for … in CUCUCU…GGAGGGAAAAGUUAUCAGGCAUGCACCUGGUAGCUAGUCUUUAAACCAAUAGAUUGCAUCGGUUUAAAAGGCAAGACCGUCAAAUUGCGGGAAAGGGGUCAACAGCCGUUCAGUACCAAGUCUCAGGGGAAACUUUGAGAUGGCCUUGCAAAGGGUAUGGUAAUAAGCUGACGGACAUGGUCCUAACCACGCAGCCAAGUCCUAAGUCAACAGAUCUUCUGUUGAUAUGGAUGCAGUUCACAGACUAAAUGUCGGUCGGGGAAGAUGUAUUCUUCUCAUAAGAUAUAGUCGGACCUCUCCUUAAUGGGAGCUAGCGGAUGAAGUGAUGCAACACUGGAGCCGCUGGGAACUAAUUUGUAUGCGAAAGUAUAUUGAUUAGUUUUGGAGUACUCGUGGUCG;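 also: selection with 25 µg/mL kanamycin versus none on LB agar overnight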
measurement_context: 30 °C
Give bare numbers.

For each of the sequences below, state self-splicing fitness (ln).
1. AACGAGCAAUAUUACGAACC
2. CAGGAGCAAUAUUACGGUGU
3. GCAUAGCAAUAUUACGUGAC
4. AAUAAGCAAUAUUACGAUAU
5. AUUAAGCAAUAUUACGUAUA
6. CGACAGCAAUAUUACGUAAC

1. -3.57
2. -3.1
3. -2.49
4. -1.71
5. -1.48
6. -4.37

For each of the sequences below, state self-splicing fitness (ln).
1. CGUAAGCAAUAUUACGUCGG
2. GAGCAGCAAUAUUACGGUGU
3. GGUUAGCAAUAUUACGUCGA

[-1.2, -2.84, -1.43]

Recall and state the measured self-splicing fitness (ln) for UGUAAGCAAUAUUACGUGAA .
-1.8

###

method_notes: self-splicing fitness, log relative to wild type (ln ratio); higher = more splicing; Tetrahymena group I intron in knt gene, E. coli kanamycin selection, DiMSum; sequences stand for … in CUCUCU…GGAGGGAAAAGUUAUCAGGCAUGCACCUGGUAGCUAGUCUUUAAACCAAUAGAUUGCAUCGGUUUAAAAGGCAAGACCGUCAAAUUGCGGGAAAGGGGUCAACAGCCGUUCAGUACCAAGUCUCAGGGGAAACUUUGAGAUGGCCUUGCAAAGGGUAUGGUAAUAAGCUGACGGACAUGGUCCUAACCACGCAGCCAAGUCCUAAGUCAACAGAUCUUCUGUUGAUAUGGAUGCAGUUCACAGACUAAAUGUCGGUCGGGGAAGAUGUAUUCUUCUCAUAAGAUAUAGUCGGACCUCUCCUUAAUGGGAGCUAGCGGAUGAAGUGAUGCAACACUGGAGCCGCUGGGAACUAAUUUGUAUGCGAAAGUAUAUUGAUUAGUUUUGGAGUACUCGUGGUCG
measurement_context: 37 °C
// map self-splicing fitness (ln) to label using 0: < -2; 1: ≥ -2 and < -0.5; 2: ≥ -0.5

[[record]]
sequence = "AUCCAGCAAUAUUACGCACG"
label = 2

[[record]]
sequence = "CAUCAGCAAUAUUACGCUUG"
label = 1

[[record]]
sequence = "AAGCAGCAAUAUUACGAUCU"
label = 2

[[record]]
sequence = "CGGGAGCAAUAUUACGCGUA"
label = 1

[[record]]
sequence = "GGCAAGCAAUAUUACGAGUG"
label = 1

[[record]]
sequence = "AGUUAGCAAUAUUACGUACA"
label = 2

[[record]]
sequence = "CCCUAGCAAUAUUACGGAGU"
label = 0

[[record]]
sequence = "CCGAAGCAAUAUUACGCCAC"
label = 1


Next up:
Looking at UCGUAGCAAUAUUACGUUUA , which class would you pick?
1
